protocol.summary: Half life in SCID mouse at 3 mg/kg, po by LC-MS/MS analysis
Type: ADME, organism-based
condition.description: in vivo
measurement.label: half-life (h)
The figure you give is taken to be in h; do not add the unit.

Data request, read-out half-life, for N#Cc1ccc(O[C@H]2CC[C@H](NC(=O)c3ccc(N4CCC(N5CCN(c6ccc7c(c6)C(=O)N(C6CCC(=O)NC6=O)C7=O)CC5)CC4)cc3)CC2)cc1Cl (stereo partly specified)
5.6

---

protocol.summary: Drug distribution in tumor of CB17:SCID mouse xenografted with human VCaP cells at 20 mg/kg, po measured at 24 hrs by LCMS analysis
Type: ADME, organism-based, Neoplasm
condition.description: read-out: Drug uptake
measurement.label: concentration at 24 h (ng/g)
The figure you give is taken to be in ng/g; do not add the unit.

# compound, units, reported.measurement
data = [
    ("CN(c1ccc(C#N)c(Cl)c1)[C@H]1CC[C@H](NC(=O)c2ccc(N3CCN(C4CN(c5ccc6c(c5)C(=O)N(C5CCC(=O)NC5=O)C6=O)C4)CC3)cc2)CC1 (stereo partly drawn)", "ng/g", 301),
    ("CN(c1ccc(C#N)c(Cl)c1)[C@H]1CC[C@H](NC(=O)c2ccc(N3CCN(C4CCN(c5ccc6c(c5)C(=O)N(C5CCC(=O)NC5=O)C6=O)CC4)CC3)cc2)CC1 (stereo partly drawn)", "ng/g", 176),
]

Continue with the compound presented below.
Data request, read-out concentration at 24 h, for CN(c1ccc(C#N)c(Cl)c1)[C@H]1CC[C@H](NC(=O)c2ccc(N3CCC(N4CCN(c5ccc6c(c5)C(=O)N(C5CCC(=O)NC5=O)C6=O)CC4)CC3)cc2)CC1 (stereo partly drawn)
137

All values here come from ChEMBL document CHEMBL4842372.
